Measured Inhibition (%) @10 μg/ml, listed per entry for reference.
- TESTED TARGET: recombinant human Tie-2 protein (Homo sapiens, UniProt Q02763)
- Construct: purchased Thermo Fisher Scientific Inc. PV3628
- Sequence (Q02763 23-1124): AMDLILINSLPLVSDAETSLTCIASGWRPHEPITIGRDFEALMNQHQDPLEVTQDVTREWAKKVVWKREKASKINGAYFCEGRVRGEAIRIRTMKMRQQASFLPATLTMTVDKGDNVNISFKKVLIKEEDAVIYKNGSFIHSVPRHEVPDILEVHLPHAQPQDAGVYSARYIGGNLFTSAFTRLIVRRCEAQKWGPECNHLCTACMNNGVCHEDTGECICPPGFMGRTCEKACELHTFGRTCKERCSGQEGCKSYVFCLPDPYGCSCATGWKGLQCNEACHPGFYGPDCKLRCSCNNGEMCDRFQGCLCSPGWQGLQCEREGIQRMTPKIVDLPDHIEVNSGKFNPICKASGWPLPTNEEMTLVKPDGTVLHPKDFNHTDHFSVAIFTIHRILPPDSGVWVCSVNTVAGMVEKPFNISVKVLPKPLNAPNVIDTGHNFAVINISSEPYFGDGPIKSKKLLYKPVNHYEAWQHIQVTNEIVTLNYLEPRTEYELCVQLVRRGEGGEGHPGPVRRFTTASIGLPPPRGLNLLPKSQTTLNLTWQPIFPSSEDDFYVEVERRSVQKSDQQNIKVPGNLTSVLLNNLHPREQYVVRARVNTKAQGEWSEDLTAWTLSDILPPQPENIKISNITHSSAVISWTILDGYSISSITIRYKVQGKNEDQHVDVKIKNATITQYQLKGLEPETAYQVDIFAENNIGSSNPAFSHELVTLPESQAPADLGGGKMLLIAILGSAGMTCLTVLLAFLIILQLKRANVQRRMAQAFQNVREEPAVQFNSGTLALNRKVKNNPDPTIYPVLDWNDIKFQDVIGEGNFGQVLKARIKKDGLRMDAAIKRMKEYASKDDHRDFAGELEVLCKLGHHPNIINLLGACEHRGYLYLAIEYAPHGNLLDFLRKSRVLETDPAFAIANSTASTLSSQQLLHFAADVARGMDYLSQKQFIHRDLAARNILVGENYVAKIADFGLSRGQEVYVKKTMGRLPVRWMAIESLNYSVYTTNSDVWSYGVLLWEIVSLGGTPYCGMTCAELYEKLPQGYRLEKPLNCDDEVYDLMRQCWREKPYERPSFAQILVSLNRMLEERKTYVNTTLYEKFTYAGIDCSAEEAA
- TEST: Z′-Lyte FRET enzymatic activity assay of Tie-2 kinase
- Format: biochemical
- TEST PARAMETERS: 10 μg/mL preliminary screening, Table S1
OBSERVED PROPERTY: Inhibition (%) @10 μg/ml

| COMPOUND | OBSERVED PROPERTY | OBSERVED VALUE |
| --- | --- | --- |
| O=C(COc1ccc(S(=O)(=O)N2CCc3ccccc32)cc1)NCc1cccnc1 [TP-C2-52] | Inhibition (%) @10 μg/ml | 64.42 |
| O=C(Nc1ccc(NC(=S)NC(=O)c2cccc3ccccc23)cc1)c1cccs1 [TP-C2-15] | Inhibition (%) @10 μg/ml | 72.64 |
| O=C(NC(=S)Nc1ccc(-c2nc3ccccc3o2)c(O)c1)c1cccc(Br)c1 [TP-C2-10] | Inhibition (%) @10 μg/ml | 46.26 |
| Cc1ccc2nc(-c3ccccn3)cc(C(=O)NC3CCCc4ccccc43)c2c1 (stereo not drawn) [TP-C2-37] | Inhibition (%) @10 μg/ml | 80.89 |
| COc1ccc(-c2cc3ccccc3oc2=O)cc1NC(=O)c1cccnc1 [TP-C2-31] | Inhibition (%) @10 μg/ml | 51.93 |
| Cc1ccccc1COc1ccc(-c2nnn(CC(=O)Nc3ccc4c(c3)OCO4)n2)cc1 [TP-C2-28] | Inhibition (%) @10 μg/ml | 40.32 |
| COc1ccc(C(=O)NC(=S)Nc2ccc(-c3nc4cc(C)c(C)cc4o3)cc2)cc1OC [TP-C2-8] | Inhibition (%) @10 μg/ml | 68.53 |
| O=c1cc(-c2ccccc2)c2ccc(OCc3cccc(C(F)(F)F)c3)cc2o1 [TP-C1-18] | Inhibition (%) @10 μg/ml | 39.7 |
| Cc1ccccc1C(=O)Nc1cccc(Oc2ccc3c(c2)C(=O)NC3=O)c1 [TP-C2-26] | Inhibition (%) @10 μg/ml | 61.34 |

---

Measured Inhibition (%) @10 μg/ml, listed per entry for reference.
- TESTED TARGET: recombinant human Tie-2 protein (Homo sapiens, UniProt Q02763)
- Construct: purchased Thermo Fisher Scientific Inc. PV3628
- TEST: Z′-Lyte FRET enzymatic activity assay of Tie-2 kinase
- Type: biochemical
- TEST PARAMETERS: 10 μg/mL preliminary screening, Table S1
OBSERVED PROPERTY: Inhibition (%) @10 μg/ml

| COMPOUND | TESTED TARGET | OBSERVED VALUE |
| --- | --- | --- |
| CCOc1cc(CNCCc2ccc(S(N)(=O)=O)cc2)ccc1OCc1ccccc1.Cl | recombinant human Tie-2 protein (Homo sapiens, UniProt Q02763) | 23.47 |
| COc1cc(C=NN=C2SC(CC(=O)O)C(=O)N2c2ccc(O)cc2)ccc1O (centres unmarked) | recombinant human Tie-2 protein (Homo sapiens, UniProt Q02763) | 37.56 |
| CC(C)CNC(=O)c1ccccc1NC(=O)c1ccccc1N(C)S(=O)(=O)c1ccccc1 | recombinant human Tie-2 protein (Homo sapiens, UniProt Q02763) | 55.92 |
| O=C(OCC(=O)c1ccccc1Cl)c1ccc2c(c1)-c1ccccc1C2=O | recombinant human Tie-2 protein (Homo sapiens, UniProt Q02763) | 75.19 |
| COc1cc(-c2nc3ccccn3c2N=Cc2c[nH]nc2-c2ccccc2)ccc1O | recombinant human Tie-2 protein (Homo sapiens, UniProt Q02763) | 25.58 |
| O=C(Nc1ccc2c(c1)OCCO2)C1CC(=O)N(CCc2c[nH]c3ccc(F)cc23)C1 (centres unmarked) | recombinant human Tie-2 protein (Homo sapiens, UniProt Q02763) | 48.64 |
| Fc1ccc(C2CC(c3cccs3)=NN2C(=S)NCCc2ccccc2)cc1 (racemic) | recombinant human Tie-2 protein (Homo sapiens, UniProt Q02763) | 56.09 |
| CCOc1ccc(CN(CCc2ccc3c(c2)OCO3)Cc2ccc(C)cc2)cc1 | recombinant human Tie-2 protein (Homo sapiens, UniProt Q02763) | 17.49 |
| O=C(O)CC1SC(=NN=Cc2ccc(OC(=O)c3cccc4ccccc34)cc2)NC1=O (racemic) | recombinant human Tie-2 protein (Homo sapiens, UniProt Q02763) | -280.42 |
| O=C(NCc1n[nH]c(=O)c2ccccc12)c1cc2ccccc2oc1=O | recombinant human Tie-2 protein (Homo sapiens, UniProt Q02763) | 66.52 |
| O=C(OCc1ccccc1)c1cn(-c2ccccc2)nc1-c1ccncc1 | recombinant human Tie-2 protein (Homo sapiens, UniProt Q02763) | 25.51 |
| c1cncc(CN2CN(CC3CCCO3)c3nc4ccccc4n3C2)c1 (racemic) | recombinant human Tie-2 protein (Homo sapiens, UniProt Q02763) | 29.83 |
| CCCOc1ccc(N2C(=O)CC(N(CCc3ccc(OC)cc3)C(=O)c3cccc(F)c3)C2=O)cc1 (centres unmarked) | recombinant human Tie-2 protein (Homo sapiens, UniProt Q02763) | 83.65 |
| CCCCc1ccc(NC(=S)C2=C(NCc3ccc4c(c3)OCO4)CC(C)(C)CC2=O)cc1 | recombinant human Tie-2 protein (Homo sapiens, UniProt Q02763) | 2.9 |
| Cc1ccc2c(c1)C(Cc1nc3ccccc3c(=O)n1CCc1ccccc1)C(=O)N2 (centres unmarked) | recombinant human Tie-2 protein (Homo sapiens, UniProt Q02763) | 74.86 |
| CC(=O)c1c(C)cc(C)c(CSc2ccccn2)c1C | recombinant human Tie-2 protein (Homo sapiens, UniProt Q02763) | 90.2 |
| COc1cc(NC(=S)NC(=O)c2ccccc2OC)ccc1NC(=O)c1cc2ccccc2o1 | recombinant human Tie-2 protein (Homo sapiens, UniProt Q02763) | 87.61 |
| O=C(c1cc(-c2ccncc2)nc2ccc(Br)cc12)N1CCN(Cc2ccc3c(c2)OCO3)CC1 | recombinant human Tie-2 protein (Homo sapiens, UniProt Q02763) | 63.88 |
| O=C(c1cc(-c2ccncc2)nc2ccc(Cl)cc12)N1CCN(C(=O)C2CCCO2)CC1 (centres unmarked) | recombinant human Tie-2 protein (Homo sapiens, UniProt Q02763) | 61.48 |
| Cc1ccccc1C(=O)NC(=S)Nc1ccc(NC(=O)c2cc3ccccc3o2)cc1 | recombinant human Tie-2 protein (Homo sapiens, UniProt Q02763) | 67.14 |
| Cc1ccc(C(=O)CSc2nc3ccccc3c(=O)n2N)o1 | recombinant human Tie-2 protein (Homo sapiens, UniProt Q02763) | 55.24 |
| CC(=O)Oc1ccccc1NC(=O)c1ccc2c(c1)C(=O)N(CC1CCCO1)C2=O (centres unmarked) | recombinant human Tie-2 protein (Homo sapiens, UniProt Q02763) | 6.95 |
| O=C(CC1c2ccccc2Oc2ccccc21)Nc1ccccn1 | recombinant human Tie-2 protein (Homo sapiens, UniProt Q02763) | 11.44 |
| CC(=O)Nc1cccc(NC(=O)c2cc(-c3ccncc3)nc3ccc(Br)cc23)c1 | recombinant human Tie-2 protein (Homo sapiens, UniProt Q02763) | 75.1 |
| c1ccc(-c2nnc3n2N=C(c2c[nH]c4ccccc24)CS3)cc1 | recombinant human Tie-2 protein (Homo sapiens, UniProt Q02763) | 61.04 |
| c1ccc(-c2cc(-c3ccc4c(c3)OCCO4)c(-c3ccccc3)nn2)cc1 | recombinant human Tie-2 protein (Homo sapiens, UniProt Q02763) | 43.96 |
